These entries and their values trace back to patent US10053468B2.

Target: UniProt P51449
Test: Cofactor recruitment test (Alpha Screen, biotinylated SRC-1 peptide)
Assay type: biochemical
Details: read-out: Signal value inhibitory rate at test compound 1 μM (%)
// reported inhibition at 1 µM for each item listed
Dear colleague, please return just the value in %, with no unit written.

1. COc1ccc2c(n1)CCN(C(=O)Cc1cc(O)no1)[C@H]2C(=O)Nc1ccc(C(C)(C)C)c(F)c1 = 89

Request: Indicate the recorded inhibition at 1 µM value for this compound: CCOc1ccc2c(c1)CCN(C(=O)CCCC(=O)O)[C@H]2C(=O)Nc1cc(F)c([Si](C)(C)C)cc1F
Response: 93

Request: Annotate the compound CCOc1ccc2c(c1)CCN(C(=O)NCCC(=O)O)[C@H]2C(=O)Nc1cc(F)c([Si](C)(C)C)c(F)c1 with its measured inhibition at 1 µM.
Response: 95

----------
Biological target: RORγt (Homo sapiens, UniProt P51449)
Sequence (P51449 1-497 isoform P51449-2, species assumed): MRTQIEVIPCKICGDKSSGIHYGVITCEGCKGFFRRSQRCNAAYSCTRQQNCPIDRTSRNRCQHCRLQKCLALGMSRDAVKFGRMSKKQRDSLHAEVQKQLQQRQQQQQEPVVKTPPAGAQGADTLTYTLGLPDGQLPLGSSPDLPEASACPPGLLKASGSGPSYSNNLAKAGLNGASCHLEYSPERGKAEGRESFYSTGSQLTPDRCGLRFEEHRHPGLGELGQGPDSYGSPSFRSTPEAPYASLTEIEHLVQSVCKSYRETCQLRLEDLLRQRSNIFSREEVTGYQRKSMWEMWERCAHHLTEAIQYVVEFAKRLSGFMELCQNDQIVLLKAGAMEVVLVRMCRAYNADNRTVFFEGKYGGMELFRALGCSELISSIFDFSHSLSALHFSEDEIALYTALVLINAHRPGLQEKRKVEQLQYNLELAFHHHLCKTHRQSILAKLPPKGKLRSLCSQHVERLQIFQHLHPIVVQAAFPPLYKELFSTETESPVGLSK
Test: Cofactor recruitment test (Alpha Screen, biotinylated SRC-1 peptide)
Type: biochemical
Conditions: read-out: Signal value inhibitory rate at test compound 1 μM (%)
reported endpoint: inhibition at 1 µM (%)
Respond with the bare value in %.

Example entries begin here.
1) CC[Si](C)(C)c1c(F)cc(NC(=O)[C@H]2c3ccc(COC)nc3CCN2C(=O)c2cc(O)no2)cc1F [Example 174] = 88
2) CCOc1ccc2c(c1)CCN(C(=O)CCCCC(=O)O)[C@H]2C(=O)Nc1ccc([Si](C)(C)C)c(F)c1 [Example 211] = 92

Request: Look up RORγt (Homo sapiens, UniProt P51449) data: inhibition at 1 µM of CCOc1ccc2c(c1)CCN(C(=O)NCCCC(=O)O)[C@H]2C(=O)Nc1cc(F)c([Si](C)(C)C)c(F)c1 [Example 238] , then report it.
Response: 92

Request: Answer with inhibition at 1 µM of CCOc1ccc2c(c1)CCN(C(=O)CCCC(=O)O)[C@H]2C(=O)Nc1ccc([Si](C)(C)C)c(F)c1 [Example 183] measured for RORγt (Homo sapiens, UniProt P51449).
Response: 91

Request: Find the measured inhibition at 1 µM of COc1ccc2c(c1)CCN(C(=O)CC#N)[C@H]2C(=O)Nc1cc(F)c(C(C)(C)C)c(F)c1 [Example 84] with RORγt (Homo sapiens, UniProt P51449) as test system.
Response: 92

----------
Below, each entry is listed alongside its reported inhibition at 3 µM.
Target: RORγt (Homo sapiens)
Assay: Jurkat reporter test (human IL-17 ROR response element luciferase, RORγt vector)
Assay type: cell-based
Conditions: Jurkat, read-out: Luminescence level inhibitory rate at test compound 3 μM (%)
Express your answer in %, writing the number without its unit.

Example entries begin here.
1) COc1ccc2c(n1)CCN(C(=O)Cc1cc(O)no1)[C@H]2C(=O)Nc1ccc([Si](C)(C)C)c(F)c1 = 100
2) COc1ccc2c(c1)CCN(C(=O)N1CC(CC(=O)O)C1)[C@H]2C(=O)Nc1cc(F)c([Si](C)(C)C)c(F)c1 = 101
3) C[Si](C)(C)c1ccc(NC(=O)[C@H]2c3ccc(OC(F)F)cc3CCN2C(=O)CCCC(=O)O)cc1F = 100
4) CC[Si](C)(C)c1c(F)cc(NC(=O)[C@H]2c3ccc(OC)cc3CCN2C(=O)CCC(=O)O)cc1F = 102

Request: Indicate the recorded inhibition at 3 µM value for this compound: CC[Si](C)(C)c1c(F)cc(NC(=O)[C@H]2c3ccc(COC)nc3CCN2C(=O)Cc2cc(O)no2)cc1F
Response: 99
